Target: T1, orthogonal hCD122 receptor (hoRb), hCD122 with H133D and Y134F (human, UniProt P14784 27-550)
T1 sequence: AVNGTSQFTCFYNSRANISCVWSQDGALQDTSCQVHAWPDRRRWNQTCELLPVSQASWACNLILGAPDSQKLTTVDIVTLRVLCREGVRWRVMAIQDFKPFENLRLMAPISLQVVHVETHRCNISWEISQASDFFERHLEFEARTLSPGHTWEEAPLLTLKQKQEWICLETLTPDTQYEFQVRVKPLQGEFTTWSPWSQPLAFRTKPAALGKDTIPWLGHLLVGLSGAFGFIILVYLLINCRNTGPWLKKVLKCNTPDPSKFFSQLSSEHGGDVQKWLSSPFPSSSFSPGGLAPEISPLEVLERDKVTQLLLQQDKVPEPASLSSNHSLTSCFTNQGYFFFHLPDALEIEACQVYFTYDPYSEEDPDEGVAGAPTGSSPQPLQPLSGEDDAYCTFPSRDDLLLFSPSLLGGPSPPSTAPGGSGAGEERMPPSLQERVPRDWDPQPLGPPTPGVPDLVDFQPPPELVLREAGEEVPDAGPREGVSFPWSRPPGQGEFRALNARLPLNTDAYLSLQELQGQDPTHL
Test: cell-based or functional assay
Parameter threshold = 20000 cts/min. Response is 1.0 when 3F8 Ortho Proliferation Signal 1:50 meets or exceeds it, else 0.0.

1) SQVSKA (ligand) APTSSSTKKTQLQLSQLLVSLKAILNGINNYKNPKLTRMLTFKFYMPKKATELKHLQCLEEELKPLEEVLNLAQSKNFHLRPRDLISNINVIVLELKGSETTFMCEYADETATIVEFLNRWITFCQSIISTLT	1.0
2) G27S, SQVLKA (ligand) APTSSSTKKTQLQLSQLLVLLKAILNSINNYKNPKLTRMLTFKFYMPKKATELKHLQCLEEELKPLEEVLNLAQSKNFHLRPRDLISNINVIVLELKGSETTFMCEYADETATIVEFLNRWITFCQSIISTLT	0.0
3) ΔA1, SQVLKA (ligand) PTSSSTKKTQLQLSQLLVLLKAILNGINNYKNPKLTRMLTFKFYMPKKATELKHLQCLEEELKPLEEVLNLAQSKNFHLRPRDLISNINVIVLELKGSETTFMCEYADETATIVEFLNRWITFCQSIISTLT	0.0
4) C125A, SQVLKA (ligand) APTSSSTKKTQLQLSQLLVLLKAILNGINNYKNPKLTRMLTFKFYMPKKATELKHLQCLEEELKPLEEVLNLAQSKNFHLRPRDLISNINVIVLELKGSETTFMCEYADETATIVEFLNRWITFAQSIISTLT	1.0
5) L85V, SQVLKA (ligand) APTSSSTKKTQLQLSQLLVLLKAILNGINNYKNPKLTRMLTFKFYMPKKATELKHLQCLEEELKPLEEVLNLAQSKNFHLRPRDVISNINVIVLELKGSETTFMCEYADETATIVEFLNRWITFCQSIISTLT	0.0
6) L18F, SQVLKA (ligand) APTSSSTKKTQLQLSQLFVLLKAILNGINNYKNPKLTRMLTFKFYMPKKATELKHLQCLEEELKPLEEVLNLAQSKNFHLRPRDLISNINVIVLELKGSETTFMCEYADETATIVEFLNRWITFCQSIISTLT	1.0
